- Tested on: 126254-015-R-J1-PDC complex spheroid growth, % test/control
- Experimental Protocol: Anticancer human tumor 126254-015-R-J1-PDC patient-derived soft tissue sarcoma cell line growth inhibition [Asc]
- Particulars: curve of first compound; second compound 0.316 µM
Measurement Type: IC50

| Compound | IC50 |
| --- | --- |
| NC1CCC(NC2CC2c2ccccc2)CC1 (stereo not drawn) + CNC(C)C(=O)NC1CN(S(=O)(=O)c2cccc(S(=O)(=O)N3CCC4CCC(C(=O)NC(c5ccccc5)c5ccccc5)N4C(=O)C(NC(=O)C(C)NC)C3)c2)CCC2CCC(C(=O)NC(c3ccccc3)c3ccccc3)N2C1=O | > 100 nM |

Prompt line: Jot down IC50 (126254-015-R-J1-PDC complex spheroid growth, % test/control) of CNC(C)C(=O)NC1CN(S(=O)(=O)c2cccc(S(=O)(=O)N3CCC4CCC(C(=O)NC(c5ccccc5)c5ccccc5)N4C(=O)C(NC(=O)C(C)NC)C3)c2)CCC2CCC(C(=O)NC(c3ccccc3)c3ccccc3)N2C1=O (stereo not drawn) + Cc1c(S(C)(=O)=O)c(-c2cc(F)cc(N3CCN(c4ccc(NS(=O)(=O)c5ccc(NC(CCN6CCC(C(=O)OCCCP(=O)(O)O)CC6)CSc6ccccc6)c(S(=O)(=O)C(F)(F)F)c5)cc4)CC3)c2)c(-c2ccc(Cl)cc2)n1C(C)C .
Response line: 90.5 nM

Prompt line: Write down the reported IC50 (system: 126254-015-R-J1-PDC complex spheroid growth, % test/control) of CCN1C(C(=O)NC23CCC(C(=O)O)(CC2)CC3)C(c2cccc(Cl)c2F)C2(C(=O)Nc3cc(Cl)ccc32)C12CCCCC2 (stereo not drawn) + Cc1c(S(C)(=O)=O)c(-c2cc(F)cc(N3CCN(c4ccc(NS(=O)(=O)c5ccc(NC(CCN6CCC(C(=O)OCCCP(=O)(O)O)CC6)CSc6ccccc6)c(S(=O)(=O)C(F)(F)F)c5)cc4)CC3)c2)c(-c2ccc(Cl)cc2)n1C(C)C
Response line: > 3000 nM

----------
- System: 126254-015-R-J1-PDC complex spheroid growth, % test/control
- Experimental Protocol: Anticancer human tumor 126254-015-R-J1-PDC cell line growth inhibition [Asc];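 note: spheroids exposed to compound for seven days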;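 for viability, T/C: 100% = DMSO vehicle control wells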
- Particulars: second compound 0.316 µM; first compound 0.1 µM; stronger effect = lower value
Measurement Type: viability, T/C (%)
Lab book: enter the figure in %, no units written.

Known viability, T/C results, listed for orientation:
| Compound | viability, T/C (%) |
| --- | --- |
| C#Cc1c(F)ccc2cc(O)cc(-c3ncc4c(N5CC6CCC(C5)N6)nc(OCC56CCCN5CC(F)C6)nc4c3F)c12 (stereo not drawn) + CNC(C)C(=O)NC1CN(S(=O)(=O)c2cccc(S(=O)(=O)N3CCC4CCC(C(=O)NC(c5ccccc5)c5ccccc5)N4C(=O)C(NC(=O)C(C)NC)C3)c2)CCC2CCC(C(=O)NC(c3ccccc3)c3ccccc3)N2C1=O | 58.7 |
| CCN1CCN(Cc2ccc(Nc3ncc(F)c(-c4cc(F)c5nc(C)n(C(C)C)c5c4)n3)nc2)CC1 + Cc1c(S(C)(=O)=O)c(-c2cc(F)cc(N3CCN(c4ccc(NS(=O)(=O)c5ccc(NC(CCN6CCC(C(=O)OCCCP(=O)(O)O)CC6)CSc6ccccc6)c(S(=O)(=O)C(F)(F)F)c5)cc4)CC3)c2)c(-c2ccc(Cl)cc2)n1C(C)C | 95.5 |

We now examine a further compound.
Prompt line: Please give measured viability, T/C of the following entry: CCN1CCN(Cc2ccc(Nc3ncc(F)c(-c4cc(F)c5nc(C)n(C(C)C)c5c4)n3)nc2)CC1 + CNC(C)C(=O)NC1CN(S(=O)(=O)c2cccc(S(=O)(=O)N3CCC4CCC(C(=O)NC(c5ccccc5)c5ccccc5)N4C(=O)C(NC(=O)C(C)NC)C3)c2)CCC2CCC(C(=O)NC(c3ccccc3)c3ccccc3)N2C1=O
Response line: 67.4
